So I've got a bunch of compounds here, and I need their z-score values.
Experiment: compound effects on multiple myeloma cell viability – MM1S, calcein-AM fluorescence, 48 h, basal, profiling panel (AID 1165);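 also: viability of MM1S multiple myeloma cells under basal unstimulated conditions; test concentration not given here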
Settings: higher = more signal
I'd appreciate a reply containing only the number, no unit.

Recorded z-score of COC(=O)[C@@]1(Cc2ccc(F)cc2)[C@H]2c3cc(C(=O)N4CCCC4)n(Cc4ccc(C)c(F)c4F)c3C[C@H]2CN1C(=O)c1ccccc1 , please.
-3.35

Also need CC1CC/C=C\[C@H]2OC34C=CCN(c5ccc(Cl)cc5)C(=O)[C@H]3N(C(C)CO)C(=O)[C@]4(C)C2C(=O)O1 (stereo partly drawn) , thanks.
1.31

Try this compound too: COCCOC(=O)N1C(=O)[C@@]2(c3ccccc31)[C@H](C(=O)NC[C@H](O)c1ccccc1)[C@H]1C(=O)O[C@H](c3ccccc3)[C@H](c3ccccc3)N1[C@@H]2c1ccc(O)cc1
-1.12

Entry to check: COC(=O)[C@@H]1N=C(c2ccc(OCCCO)cc2)O[C@@H]1C
0.916

Record: CC(C)c1ccc(NN2C(C(O)c3ccc(C#N)cc3)C=CC3C(=O)N(c4ccccc4)C(=O)C32)cc1 (stereo not drawn)
-0.303

Repeat with COc1ccc([Si](C)(C)[C@H]2[C@H](CC(=O)N(CCO)Cc3ccccc3)O[C@@]3(C(=O)N(C)c4c(Br)cc(C)cc43)[C@@H]2C)cc1
-2.75

Again, but for C=CC[C@H](OC(=O)Nc1ccc(SC)cc1)c1ccc(O)c2ccccc12
-2.74

// same read-out, input: O=C(NCc1ccc(F)cc1)[C@H]1C[C@H]2C(=O)NCC(=O)N2[C@H]1c1ccc(O)cc1
-1.49

Reference source for all entries: PubChem BioAssay
